target.or.test.system: CCL7_HUMAN (Homo sapiens, UniProt P80098)
Sequence (P80098 24-99): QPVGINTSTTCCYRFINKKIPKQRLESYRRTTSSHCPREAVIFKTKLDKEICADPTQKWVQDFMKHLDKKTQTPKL
assay.procedure: Biolayer interferometry (BLI) binding
recorded.metric: Kd (nM)

• P1243_AMBAM: tick CKBP, Amblyomma americanum; AAM-02 stated identical (protein, listed as Amblyomma americanum) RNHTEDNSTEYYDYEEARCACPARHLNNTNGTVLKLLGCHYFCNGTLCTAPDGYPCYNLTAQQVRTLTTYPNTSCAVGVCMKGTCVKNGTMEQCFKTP = 8.66
• P546_AMBCA: tick CKBP, Amblyomma cajennense (protein, Amblyomma cajennense) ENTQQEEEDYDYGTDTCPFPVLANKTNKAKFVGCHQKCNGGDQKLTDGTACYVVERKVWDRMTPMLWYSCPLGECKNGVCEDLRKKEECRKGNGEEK = 90
• P467_RHIPU: tick CKBP (evasin), Rhipicephalus pulchellus; RPU-01 stated identical (protein, listed as Rhipicephalus pulchellus) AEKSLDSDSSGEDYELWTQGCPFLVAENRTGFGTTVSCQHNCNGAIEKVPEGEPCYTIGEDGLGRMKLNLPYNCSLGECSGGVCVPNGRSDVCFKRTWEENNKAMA = 2.15
